Reference for the values: patent US11999728B2

# Cmax values compiled below
assay: Pharmacokinetic Determination (Mouse PK); type: in vivo, female CD-1 mice; settings: female, CD-1, plasma, PO, 10.0 mg/kg
measured_endpoint: Cmax (µM)

[[record]]
compound = "C[C@@H]1Cc2c([nH]c3ccccc23)[C@@H](c2c(F)cc(O[C@@H]3CCN(CCCF)C3)cc2F)N1C12CC(C1)C2 (single isomer, unassigned) [Compound 5]"
quantitative_result = 0.61

[[record]]
compound = "CCCN1CC(Oc2ccc([C@@H]3c4[nH]c5ccccc5c4C[C@@H](C)N3C34CC(C3)C4)cc2)C1 [Compound 39]"
quantitative_result = 0.224

[[record]]
compound = "C[C@@H]1Cc2c([nH]c3ccccc23)[C@@H](c2c(F)cc(NC3CN(CCCF)C3)cc2F)N1C12CC(C1)C2 [Compound 1]"
quantitative_result = 0.466

[[record]]
compound = "CCCN1CC[C@H](Nc2ccc([C@@H]3c4[nH]c5ccccc5c4C[C@@H](C)N3C34CC(C3)C4)cc2)C1 [Compound 72]"
quantitative_result = 0.24

[[record]]
compound = "C[C@@H]1Cc2c([nH]c3ccccc23)[C@@H](c2c(F)cc(N[C@H]3CCN(CCCF)C3)cc2F)N1C12CC(CO)(C1)C2 (single isomer, unassigned) [Compound 70]"
quantitative_result = 0.21

[[record]]
compound = "C[C@@H]1Cc2c([nH]c3ccccc23)[C@@H](c2ccc(N[C@@H]3CN(CCCF)C[C@H]3F)cc2)N1C12CC(C1)C2 [Compound 75]"
quantitative_result = 0.84

[[record]]
compound = "C[C@@H]1Cc2c([nH]c3ccccc23)[C@@H](c2ccc(NC3CN(CCCF)C3)nc2)N1C12CC(C1)C2 [Compound 21]"
quantitative_result = 0.06

[[record]]
compound = "C[C@@H]1Cc2c([nH]c3ccccc23)[C@@H](c2c(F)cc(NC3CN(CCCF)C3)cc2F)N1CC(F)(F)CO [GDC9545, reference compound]"
quantitative_result = 0.96

[[record]]
compound = "C[C@@H]1Cc2c([nH]c3ccccc23)[C@@H](c2ccc(O[C@H]3CCN(CCCF)C3)nc2)N1C12CC(C1)C2 (single isomer, unassigned) [Compound 10]"
quantitative_result = 0.178

[[record]]
compound = "C[C@@H]1Cc2c(ccc3[nH]ncc23)[C@@H](c2ccc(NC3CN(CCCF)C3)cn2)N1CC(F)(F)F [AZD9833, reference compound]"
quantitative_result = 0.649

[[record]]
compound = "C[C@@H]1Cc2c([nH]c3ccccc23)[C@@H](c2c(F)cc(N[C@H]3CCN(CCCF)C3)cc2F)N1C12CC(C1)C2 [Compound 19]"
quantitative_result = 0.44

[[record]]
compound = "C[C@@H]1Cc2c([nH]c3ccccc23)[C@@H](c2c(F)cc(O[C@H]3CCN(CCCF)C3)cc2F)N1C12CC(C1)C2 (single isomer, unassigned) [Compound 6]"
quantitative_result = 0.611

